- TESTED ON: RXRγ (UniProt P28705)
- TEST DETAILS: holoreceptor transactivation assay, RXRγ
- TEST SETTINGS: holoreceptor transactivation; read-out: RXR Trans. EC50 γ
Please go through the items and note down their EC50.
Numbers only here, please. The scale is nM.

### Prompt Notebook: pull reported EC50 for RXRγ (UniProt P28705), entry CC(/C=C/C(F)=C(/C)c1cc2c(c(Br)c1OC(C)C)C(C)(C)CC=C2C(C)C)=C\C(=O)O [Compound A-172]
### Response 18

### Prompt Notebook: pull reported EC50 for RXRγ (UniProt P28705), entry CC/C(=C(F)/C=C/C(C)=C/C(=O)O)c1cc2c(cc1OC)OC(C)(C)C=C2C(C)C [Compound 130]
### Response 0.6

### Prompt Notebook: pull reported EC50 for RXRγ (UniProt P28705), entry CCOc1cc2c(cc1\C(C)=C/C=C/C(C)=C/C(=O)O)C(C(C)(C)C)=CCC2(C)C [Compound A-17]
### Response 0.9

### Prompt Notebook: pull reported EC50 for RXRγ (UniProt P28705), entry CCOc1c(\C(=C(F)/C=C/C(C)=C/C(=O)O)C(C)C)cc2c(c1Br)C(C)(C)CC=C2C(C)C [Compound A-171]
### Response 2

### Prompt Notebook: pull reported EC50 for RXRγ (UniProt P28705), entry CC/C(=C(F)/C=C/C(C)=C/C(=O)O)c1cc2c(cc1OC)OC(C)(C)C=C2C [Compound 129]
### Response 53

### Prompt Notebook: pull reported EC50 for RXRγ (UniProt P28705), entry CCOc1cc2c(cc1\C(CC)=C(F)/C=C/C(C)=C/C(=O)O)C(CC)=CCC2(C)C [Compound A-78]
### Response 4

### Prompt Notebook: pull reported EC50 for RXRγ (UniProt P28705), entry CCOc1c(\C(CC)=C(F)/C=C/C(C)=C/C(=O)O)cc2c(c1Br)C(C)(C)CC=C2C(C)CC (stereo not shown) [Compound A-176]
### Response 3

Source of measurements: patent US6887896B1
